The measured values listed here are drawn from paper PMC12057046.

Overview of recorded enrichment_relative_to_wt at position 7 (wt G) for various substances
Biological target: USP8 Rhod domain (Homo sapiens, UniProt P40818)
Construct: USP8 Rhod (174–317) (UniProt: P40818); GST (cleaved yes); made in house; host or cells: Escherichia coli BL21-Gold (DE3)
Sequence (P40818 174-317): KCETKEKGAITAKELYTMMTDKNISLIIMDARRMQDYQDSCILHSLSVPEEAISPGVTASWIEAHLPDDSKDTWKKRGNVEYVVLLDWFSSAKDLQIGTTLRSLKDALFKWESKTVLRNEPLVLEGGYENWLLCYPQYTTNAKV
Test: Peptide-phage display-based deep mutational scanning (DMS), USP8 Rhod domain
Assay type: binding
Conditions: PSSM, library USP8_DMS, days 2,3; position 7
Procedure: Four rounds of phage selections were carried out using the second generation human disorderome library or the constructed deep mutational scanning library. At least three individual replicates were used for each bait protein. […] The samples were prepared for NGS as previously described. […] The dsDNA was quantified using QuantiT PicoGreen dsDNA Assay Kit (Thermo Fisher) and sent for NGS (Illumina MiSeq v3, 1 × 150 bp read setup, 20% PhiX, NGI SciLifeLab facility, Sweden). […]
Number, no unit, nothing else.

Look over these answered cases.
>  <substance>
KIAA1614_Q5VZ46_569_584 G7A (MERVLGALSSPLRLLP; UniProt Q5VZ46 569-584, looked up, variant G7A)

>  <number>
1.68

$$$$
>  <substance>
KIAA1614_Q5VZ46_569_584 G7S (MERVLGSLSSPLRLLP; UniProt Q5VZ46 569-584, looked up, variant G7S)

>  <number>
-1.8

$$$$
>  <substance>
KIAA1614_Q5VZ46_569_584 G7Y (MERVLGYLSSPLRLLP; peptide 569-584; UniProt Q5VZ46 569-584, looked up, variant G7Y)

>  <number>
-2

$$$$

Response field enrichment_relative_to_wt at position 7 (wt G) (USP8 Rhod domain (Homo sapiens, UniProt P40818)) for item KIAA1614_Q5VZ46_569_584 G7F (MERVLGFLSSPLRLLP; UniProt Q5VZ46 569-584, looked up, variant G7F) : 3

Response field enrichment_relative_to_wt at position 7 (wt G) (USP8 Rhod domain (Homo sapiens, UniProt P40818)) for item KIAA1614_Q5VZ46_569_584 G7K (MERVLGKLSSPLRLLP; peptide 569-584; UniProt Q5VZ46 569-584, looked up, variant G7K) : -96

Response field enrichment_relative_to_wt at position 7 (wt G) (USP8 Rhod domain (Homo sapiens, UniProt P40818)) for item KIAA1614_Q5VZ46_569_584 G7D (MERVLGDLSSPLRLLP; peptide 569-584; UniProt Q5VZ46 569-584, looked up, variant G7D) : 17

* * *

Biological target: USP8 Rhod domain (Homo sapiens, UniProt P40818)
Construct: USP8 Rhod (174–317) (UniProt: P40818); GST (cleaved yes); made in house; host or cells: Escherichia coli BL21-Gold (DE3)
Sequence (P40818 174-317): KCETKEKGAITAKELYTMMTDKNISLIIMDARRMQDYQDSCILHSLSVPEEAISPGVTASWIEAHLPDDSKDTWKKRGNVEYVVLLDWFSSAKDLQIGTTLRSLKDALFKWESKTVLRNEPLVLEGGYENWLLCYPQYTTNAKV
Experiment: Peptide-phage display-based deep mutational scanning (DMS), USP8 Rhod domain
Assay type: binding
Settings: PSSM, library USP8_DMS, days 2,3; position 15
Overview of recorded proportion of amino acid at position 15 (wt L) for various substances
Number, no unit, nothing else.

Look over these answered cases.
>  <substance>
KIAA1614_Q5VZ46_569_584 L15N (MERVLGGLSSPLRLNP; peptide 569-584; UniProt Q5VZ46 569-584, looked up, variant L15N)

>  <number>
0.0109

$$$$
>  <substance>
KIAA1614_Q5VZ46_569_584 L15V (MERVLGGLSSPLRLVP; UniProt Q5VZ46 569-584, looked up, variant L15V)

>  <number>
0.00642

$$$$
>  <substance>
KIAA1614_Q5VZ46_569_584 L15I (MERVLGGLSSPLRLIP; UniProt Q5VZ46 569-584, looked up, variant L15I)

>  <number>
0.00349

$$$$

Next item in the queue.
Just so you know, measured proportion of amino acid at position 15 (wt L) for KIAA1614_Q5VZ46_569_584 L15A (MERVLGGLSSPLRLAP; UniProt Q5VZ46 569-584, looked up, variant L15A) came out at 0.00469

* * *

Target: USP8 Rhod domain (Homo sapiens)
Construct: USP8 Rhod (174–317) (UniProt: P40818); GST (cleaved yes); made in house; host or cells: Escherichia coli BL21-Gold (DE3)
Sequence (P40818 174-317): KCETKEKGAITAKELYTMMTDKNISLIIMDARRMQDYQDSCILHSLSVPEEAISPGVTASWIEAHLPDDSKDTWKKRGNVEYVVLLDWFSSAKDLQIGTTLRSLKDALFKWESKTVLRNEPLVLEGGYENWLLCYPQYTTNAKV
Assay: Peptide-phage display-based deep mutational scanning (DMS), USP8 Rhod domain
Format: binding
Settings: PSSM, library USP8_DMS, days 2,3; position 15
value kind: enrichment_relative_to_wt at position 15 (wt L)
Number, no unit, nothing else.

>  <substance>
KIAA1614_Q5VZ46_569_584 L15A (MERVLGGLSSPLRLAP; UniProt Q5VZ46 569-584, looked up, variant L15A)

>  <target>
USP8 Rhod domain (Homo sapiens)

>  <number>
-207

$$$$

Just so you know, measured enrichment_relative_to_wt at position 15 (wt L) for KIAA1614_Q5VZ46_569_584 L15N (MERVLGGLSSPLRLNP; peptide 569-584; UniProt Q5VZ46 569-584, looked up, variant L15N) came out at -89

Just so you know, measured enrichment_relative_to_wt at position 15 (wt L) for KIAA1614_Q5VZ46_569_584 L15V (MERVLGGLSSPLRLVP; UniProt Q5VZ46 569-584, looked up, variant L15V) came out at -151

Just so you know, measured enrichment_relative_to_wt at position 15 (wt L) for KIAA1614_Q5VZ46_569_584 L15I (MERVLGGLSSPLRLIP; UniProt Q5VZ46 569-584, looked up, variant L15I) came out at -277

* * *

Target: USP8 Rhod domain (Homo sapiens)
Construct: USP8 Rhod (174–317) (UniProt: P40818); GST (cleaved yes); made in house; host or cells: Escherichia coli BL21-Gold (DE3)
Sequence (P40818 174-317): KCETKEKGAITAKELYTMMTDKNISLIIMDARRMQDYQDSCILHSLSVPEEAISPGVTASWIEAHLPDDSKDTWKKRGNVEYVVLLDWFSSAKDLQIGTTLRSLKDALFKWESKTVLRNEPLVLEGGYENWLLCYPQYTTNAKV
Assay: Peptide-phage display-based deep mutational scanning (DMS), USP8 Rhod domain
Format: binding
Settings: wild type/mutant pair; bait USP8_Rhodanese__P40818_174_317; vs hit_library_peptide_wt GLALWEAKMKQLAERA; negative where mutant fraction exceeds wild type; ProP-PD pairs (sheet S7.B)
Overview of recorded hit_pair_ratio for various sequences
Number, no unit, nothing else.

Look over these answered cases.
>  <query sequence>
GLALWFAKMKQLAERA

>  <hit_pair_ratio>
553.50

$$$$
>  <query sequence>
GLALKEAKMKQLAERA

>  <hit_pair_ratio>
553.50

$$$$
>  <query sequence>
GLALWEAKVKQLAERA

>  <hit_pair_ratio>
369.00

$$$$

Just so you know, measured hit_pair_ratio for `GLYLWEAKMKQLAERA` came out at 27.03

Just so you know, measured hit_pair_ratio for `GSALWEAKMKQLAERA` came out at 417.62

Just so you know, measured hit_pair_ratio for `GLALPEAKMKQLAERA` came out at 110.70

* * *

Target: USP8 Rhod domain (Homo sapiens, UniProt P40818)
Construct: USP8 Rhod (174–317) (UniProt: P40818); GST (cleaved yes); made in house; host or cells: Escherichia coli BL21-Gold (DE3)
Experiment: SPOT array of predicted peptides from known interactors, USP8 Rhod domain
Assay type: binding
Settings: Rhod-Peptide screening, SPOT array of predicted peptides; KIAA1614 positive control = 100
value kind: Percentage (%) normalized to highest intensity and corrected for background
// return numeric value only (unit: %, not printed)

Look over these answered cases.
>  <query sequence>
AQPLTPGVLMVQPAA

>  <number>
-0.828

$$$$
>  <query sequence>
PEKGARSLAGPPPHF

>  <number>
-1.37

$$$$
>  <query sequence>
SSTSTRHLQGVEFEM

>  <number>
-1.73

$$$$

Just so you know, measured Percentage (%) normalized to highest intensity and corrected for background for GMERVLGGLSSPLRLL [KIAA1614 Positive control] came out at 100

Just so you know, measured Percentage (%) normalized to highest intensity and corrected for background for `DPSAPPSLLLLLLAQ` came out at 0.93
